# targetOfAssay: T1, G-protein coupled receptor RE2 peptide on HLA-A*02:01 (human)
# T1 peptide: RITDLGLSPH
# assayName: cytokine release
attributeMeasured: binding result

Examples with their reported binding result follow.
{"binder": "SIG35α / TRBV27 Cl.1086 (TCR) alpha TRAV12-2 J35 CDR3: CAVSIGFGNVL beta TRBV27 TRBJ1-2 CDR3: CASSLHGPGGYTF", "attributeMeasured": "binding result", "observedResult": "no recognition"}
{"binder": "SIG35α / TRBV27 Cl.1574 (TCR) alpha TRAV12-2 J35 CDR3: CAVSIGFGNVL beta TRBV27 TRBJ1-1 CDR3: CASSPWERINTEAFF", "attributeMeasured": "binding result", "observedResult": "recognises"}
{"binder": "SIG35α / TRBV27 Cl.1599 (TCR) alpha TRAV12-2 J35 CDR3: CAVSIGFGNVL beta TRBV27 TRBJ1-1 CDR3: CASSFLGAMAEAFF", "attributeMeasured": "binding result", "observedResult": "recognises"}
{"binder": "SIG35α / TRBV27 Cl.788 (TCR) alpha TRAV12-2 J35 CDR3: CAVSIGFGNVL beta TRBV27 TRBJ2-7 CDR3: CASGPSYEQYF", "attributeMeasured": "binding result", "observedResult": "recognises"}
{"binder": "SIG35α / TRBV27 Cl.413 (TCR) alpha TRAV12-2 J35 CDR3: CAVSIGFGNVL beta TRBV27 TRBJ1-4 CDR3: CASSVFGGDMGEKLFF", "attributeMeasured": "binding result", "observedResult": "no recognition"}
{"binder": "SIG35α / TRBV27 Cl.758 (TCR) alpha TRAV12-2 J35 CDR3: CAVSIGFGNVL beta TRBV27 TRBJ2-2 CDR3: CASSPRLAGDGELFF", "attributeMeasured": "binding result", "observedResult": "recognises"}
{"binder": "SIG35α / TRBV27 Cl.1593 (TCR) alpha TRAV12-2 J35 CDR3: CAVSIGFGNVL beta TRBV27 TRBJ1-5 CDR3: CASGNNQPQHF", "attributeMeasured": "binding result", "observedResult": "recognises"}
{"binder": "SIG35α / TRBV27 Cl.523 (TCR) alpha TRAV12-2 J35 CDR3: CAVSIGFGNVL beta TRBV27 TRBJ2-7 CDR3: CASGSYEQYF", "attributeMeasured": "binding result", "observedResult": "recognises"}

Please look up its binding result: SIG35α / TRBV27 Cl.794 (TCR) alpha TRAV12-2 J35 CDR3: CAVSIGFGNVL beta TRBV27 TRBJ1-2 CDR3: CASSLLGDYGYTF
recognises

What do you have for SIG35α / TRBV27 Cl.1606 (TCR) alpha TRAV12-2 J35 CDR3: CAVSIGFGNVL beta TRBV27 TRBJ2-7 CDR3: CASSLLGSYEQYF ?
recognises
